System: SNU-423 (Hepatocellular Carcinoma);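 note: after 72 h of two-drug dosing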
Assay: Bliss excess, mean over the matrix (fraction); higher = more synergy
VALUE KIND: Bliss excess
Give bare numbers.

COMPOUND | EXPERIMENTAL SYSTEM | Bliss excess
CS(=O)(=O)CCNCc1ccc(-c2ccc3ncnc(Nc4ccc(OCc5cccc(F)c5)c(Cl)c4)c3c2)o1 [Lapatinib] + C[C@@H](Oc1cc(-c2cnn(C3CCNCC3)c2)cnc1N)c1c(Cl)ccc(F)c1Cl [Crizotinib] (first compound max 10 µM, 7x7, partner max 10 µM) | SNU-423 (Hepatocellular Carcinoma) | -0.074
CC1(C)CCC(CN2CCN(c3ccc(C(=O)NS(=O)(=O)c4ccc(NCC5CCOCC5)c([N+](=O)[O-])c4)c(Oc4cnc5[nH]ccc5c4)c3)CC2)=C(c2ccc(Cl)cc2)C1 [Venetoclax] + COc1cc(Nc2ncc3c(n2)-c2ccc(Cl)cc2C(c2c(F)cccc2OC)=NC3)ccc1C(=O)O [Alisertib] (first compound max 1 µM, 7x7, partner max 10 µM) | SNU-423 (Hepatocellular Carcinoma) | 0.0176
COc1cccc(OCCCN)c1-c1cc(Nc2cnc(C#N)cn2)n[nH]1 [Prexasertib] + C=CCn1c(=O)c2cnc(Nc3ccc(N4CCN(C)CC4)cc3)nc2n1-c1cccc(C(C)(C)O)n1 [AZD1775] (first compound max 1 µM, partner max 1 µM) | SNU-423 (Hepatocellular Carcinoma) | 0.128
O=C(c1cc(Cc2n[nH]c(=O)c3ccccc23)ccc1F)N1CCN(C(=O)C2CC2)CC1 [Olaparib] + CC1(C)CCC(CN2CCN(c3ccc(C(=O)NS(=O)(=O)c4ccc(NCC5CCOCC5)c([N+](=O)[O-])c4)c(Oc4cnc5[nH]ccc5c4)c3)CC2)=C(c2ccc(Cl)cc2)C1 [Venetoclax] (first compound max 10 µM, 7x7, partner max 1 µM) | SNU-423 (Hepatocellular Carcinoma) | -0.0472
Cc1c2c(nn1C)CSCc1cc(n(C)n1)CSc1cc(c3ccccc3c1)OCCCc1c(C(=O)O)n(C)c3c-2c(Cl)ccc13 [AZD5991] + CC(=O)O[C@H]1C(=O)[C@@]2(C)[C@H]([C@H](OC(=O)c3ccccc3)[C@]3(O)C[C@H](OC(=O)[C@H](O)[C@@H](NC(=O)c4ccccc4)c4ccccc4)C(C)=C1C3(C)C)[C@]1(OC(C)=O)CO[C@@H]1C[C@@H]2O [Paclitaxel] (first compound max 1 µM, 7x7, partner max 3 µM) | SNU-423 (Hepatocellular Carcinoma) | -0.0344

GET /values?item= CC(=O)Nc1cccc(-n2c(=O)n(C3CC3)c(=O)c3c(Nc4ccc(I)cc4F)n(C)c(=O)c(C)c32)c1 [Trametinib] + Cc1nc(-c2cn3c(n2)-c2ccc(-c4cnn(C(C)(C)C(N)=O)c4)cc2OCC3)n(C(C)C)n1 [Taselisib] (first compound max 1 µM, 7x7, partner max 10 µM) &system= SNU-423 (Hepatocellular Carcinoma) returns Bliss excess: 0.0727

---

System: WM35 (Melanoma)
Assay: combination Emax (second highest fraction inhibited in the dose matrix, 72 h); higher = more inhibition; extreme values may be limits of the assay
VALUE KIND: combination Emax
One number for each entry.

MOLECULE | ENDPOINT VALUE
CN(CCO)CC[C@H](CSc1ccccc1)Nc1ccc(S(=O)(=O)NC(=O)c2ccc(N3CCC([C@@H](O)c4ccccc4-c4ccc(Cl)cc4)CC3)cc2)cc1S(=O)(=O)C(F)(F)F [AZD4320] + Cn1cnc2c(F)c(Nc3ccc(Br)cc3Cl)c(C(=O)NOCCO)cc21 [Selumetinib] (first compound max 1 µM, 7x7, partner max 3 µM) | 0.926

GET /values?item= Cn1cnc2c(F)c(Nc3ccc(Br)cc3Cl)c(C(=O)NOCCO)cc21 [Selumetinib] + CCN(CCO)CCCOc1ccc2c(Nc3cc(CC(=O)Nc4cccc(F)c4)[nH]n3)ncnc2c1 [AZD2811] (first compound max 10 µM, 7x7, partner max 1 µM) &system= WM35 (Melanoma) returns combination Emax: 0.664

---

System: TUR (Acute Myeloid Leukemia)
Assay: combination Emax (second highest fraction inhibited in the dose matrix, 72 h); higher = more inhibition; extreme values may be limits of the assay
Consider the following compounds; for each one, report its combination Emax.
Answers are plain numbers.

See these solved cases before continuing.
COMPOUND | EXPERIMENTAL SYSTEM | ENDPOINT VALUE
CN(CCO)CC[C@H](CSc1ccccc1)Nc1ccc(S(=O)(=O)NC(=O)c2ccc(N3CCC([C@@H](O)c4ccccc4-c4ccc(Cl)cc4)CC3)cc2)cc1S(=O)(=O)C(F)(F)F [AZD4320] + Cn1cnc2c(F)c(Nc3ccc(Br)cc3Cl)c(C(=O)NOCCO)cc21 [Selumetinib] (first compound max 1 µM, 7x7, partner max 3 µM) | TUR (Acute Myeloid Leukemia) | 0.161
Cc1c2c(nn1C)CSCc1cc(n(C)n1)CSc1cc(c3ccccc3c1)OCCCc1c(C(=O)O)n(C)c3c-2c(Cl)ccc13 [AZD5991] + C=CCn1c(=O)c2cnc(Nc3ccc(N4CCN(C)CC4)cc3)nc2n1-c1cccc(C(C)(C)O)n1 [AZD1775] (first compound max 1 µM, partner max 1 µM) | TUR (Acute Myeloid Leukemia) | 0.965

Attention now shifts to the item below.
The compound identified as COc1cccc(OCCCN)c1-c1cc(Nc2cnc(C#N)cn2)n[nH]1 [Prexasertib] + CCc1c2c(nc3ccc(O)cc13)-c1cc3c(c(=O)n1C2)COC(=O)[C@]3(O)CC [SN-38] (first compound max 1 µM, 7x7, partner max 0.3 µM) registered its combination Emax at 1

---

Tested on: C-33-A (Cervical Carcinoma)
Assay: combination Emax (second highest fraction inhibited in the dose matrix, 72 h); higher = more inhibition; extreme values may be limits of the assay
VALUE KIND: combination Emax
One number for each entry.

MOLECULE | combination Emax
COc1nnc2ccc(N3CCC(c4ccc(OCCN5CCN(C)C(=O)[C@H]5C)cc4)CC3)nn12 [AZD5153] + CC1(C)CCC(CN2CCN(c3ccc(C(=O)NS(=O)(=O)c4ccc(NCC5CCOCC5)c([N+](=O)[O-])c4)c(Oc4cnc5[nH]ccc5c4)c3)CC2)=C(c2ccc(Cl)cc2)C1 [Venetoclax] (first compound max 1 µM, 7x7, partner max 1 µM) | 0.379
CC(=O)c1c(C)c2cnc(Nc3ccc(N4CCNCC4)cn3)nc2n(C2CCCC2)c1=O [Palbociclib] + Cc1c2c(nn1C)CSCc1cc(n(C)n1)CSc1cc(c3ccccc3c1)OCCCc1c(C(=O)O)n(C)c3c-2c(Cl)ccc13 [AZD5991] (first compound max 10 µM, 7x7, partner max 1 µM) | 0.467

GET /values?item= C=CCn1c(=O)c2cnc(Nc3ccc(N4CCN(C)CC4)cc3)nc2n1-c1cccc(C(C)(C)O)n1 [AZD1775] + C1CN(CCC1(C(=O)N[C@@H](CCO)C2=CC=C(C=C2)Cl)N)C3=NC=NC4=C3C=CN4 [Capivasertib] (first compound max 3 µM, partner max 3 µM) &system= C-33-A (Cervical Carcinoma) returns combination Emax: 0.996

---

System: SKG-IIIa (Cervical Carcinoma)
Test: combination Emax (second highest fraction inhibited in the dose matrix, 72 h); higher = more inhibition; extreme values may be limits of the assay
Consider the following compounds; for each one, report its combination Emax.
Give bare numbers.

See these solved cases before continuing.
COMPOUND | combination Emax
COc1cccc(OCCCN)c1-c1cc(Nc2cnc(C#N)cn2)n[nH]1 [Prexasertib] + C=CCn1c(=O)c2cnc(Nc3ccc(N4CCN(C)CC4)cc3)nc2n1-c1cccc(C(C)(C)O)n1 [AZD1775] (first compound max 1 µM, partner max 1 µM) | 0.527
CN(C)CCCOc1ccc(-c2ccc3ncc4c(c3c2)n(C2CCOCC2)c(=O)n4C)cn1 [AZD0156] + CCN(CCO)CCCOc1ccc2c(Nc3cc(CC(=O)Nc4cccc(F)c4)[nH]n3)ncnc2c1 [AZD2811] (first compound max 1 µM, 7x7, partner max 1 µM) | 0.0993
COc1cccc(OCCCN)c1-c1cc(Nc2cnc(C#N)cn2)n[nH]1 [Prexasertib] + C[C@@H]1COCCN1C2=NC(=NC(=C2)C3(CC3)[S@](=N)(=O)C)C4=C5C=CNC5=NC=C4 [AZD6738] (first compound max 1 µM, 7x7, partner max 10 µM) | 0.453
COc1nnc2ccc(N3CCC(c4ccc(OCCN5CCN(C)C(=O)[C@H]5C)cc4)CC3)nn12 [AZD5153] + CCN(CCO)CCCOc1ccc2c(Nc3cc(CC(=O)Nc4cccc(F)c4)[nH]n3)ncnc2c1 [AZD2811] (first compound max 1 µM, 7x7, partner max 1 µM) | 0.495
Cc1c2c(nn1C)CSCc1cc(n(C)n1)CSc1cc(c3ccccc3c1)OCCCc1c(C(=O)O)n(C)c3c-2c(Cl)ccc13 [AZD5991] + CCN(CCO)CCCOc1ccc2c(Nc3cc(CC(=O)Nc4cccc(F)c4)[nH]n3)ncnc2c1 [AZD2811] (first compound max 1 µM, 7x7, partner max 1 µM) | 0.235
CC1(C)CCC(CN2CCN(c3ccc(C(=O)NS(=O)(=O)c4ccc(NCC5CCOCC5)c([N+](=O)[O-])c4)c(Oc4cnc5[nH]ccc5c4)c3)CC2)=C(c2ccc(Cl)cc2)C1 [Venetoclax] + C[C@@H](Nc1cc(F)cc(F)c1)c1cc(C(=O)N(C)C)cc2c(=O)cc(N3CCOCC3)oc12 [AZD8186] (first compound max 1 µM, 7x7, partner max 3 µM) | 0.168

Attention now shifts to the item below.
The compound identified as CCN(CCO)CCCOc1ccc2c(Nc3cc(CC(=O)Nc4cccc(F)c4)[nH]n3)ncnc2c1 [AZD2811] + C=CCn1c(=O)c2cnc(Nc3ccc(N4CCN(C)CC4)cc3)nc2n1-c1cccc(C(C)(C)O)n1 [AZD1775] (first compound max 1 µM, partner max 1 µM) registered its combination Emax at 0.261
